The reported measurements were obtained from the supplement of paper PMC11208160.

# Assay Name: recombinant UMI read abundance after kanamycin selection (control-corrected) (log10(CPM+1)); higher = more efficient recombination; extreme values may be limits of the assay; sequences stand for … in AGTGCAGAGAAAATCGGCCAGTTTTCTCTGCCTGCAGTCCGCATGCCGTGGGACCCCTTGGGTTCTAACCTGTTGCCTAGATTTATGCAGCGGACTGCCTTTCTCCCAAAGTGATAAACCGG…AGGTTGGTTTCACT; site = the 11-nt donor;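 also: IS621 bridge recombinase in Escherichia coli cells against a fixed T5 target plasmid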
Label True when recombinant UMI read abundance (log10) is at or above 0.009; anything below gets False.

Evaluate CCCACTACATGGACCGGTTTTCCCGGTAATCCGTATTTGTT (site CCCACTACTAA) : recombinant UMI read abundance (log10) at minimum 0.009?
True

Evaluate TAAAGTCCATGGACCGGTTTTCCCGGTAATCCGTATTTGAA (site TAAAGTCCTTT) : recombinant UMI read abundance (log10) at minimum 0.009?
True

Evaluate ACAGTTTCATGGACCGGTTTTCCCGGTAATCCGTATTTGCG (site ACAGTATCTTG) : recombinant UMI read abundance (log10) at minimum 0.009?
False

Evaluate GGTGTTCCATGGACCGGTTTTCCCGGTAATCCGTATTTGGC (site GGTGTTCCTGC) : recombinant UMI read abundance (log10) at minimum 0.009?
False

Evaluate CATCAGTCATGGACCGGTTTTCCCGGTAATCCGTATTTGCA (site CATCAGTCTTG) : recombinant UMI read abundance (log10) at minimum 0.009?
True

Evaluate GTTCGAGCATGGACCGGTTTTCCCGGTAATCCGTATTTGCA (site CTTCGAGCTTG) : recombinant UMI read abundance (log10) at minimum 0.009?
True

Evaluate TCCATGCCATGGACCGGTTTTCCCGGTAATCCGTATTTGAT (site TCCATGCCTAT) : recombinant UMI read abundance (log10) at minimum 0.009?
False

Evaluate GCTATACCATGGACCGGTTTTCCCGGTAATCCGTATTTGTA (site GCTATACCTTA) : recombinant UMI read abundance (log10) at minimum 0.009?
False

Evaluate AATGTGACATGGACCGGTTTTCCCGGTAATCCGTATTTGCT (site AATGTGACTAG) : recombinant UMI read abundance (log10) at minimum 0.009?
True

Evaluate CCCTTTTCATGGACCGGTTTTCCCGGTAATCCGTATTTGGG (site CCCTTGTCTCC) : recombinant UMI read abundance (log10) at minimum 0.009?
True

Evaluate CCCGGTGCATGGACCGGTTTTCCCGGTAATCCGTATTTGAT (site CCGGGTGCTAT) : recombinant UMI read abundance (log10) at minimum 0.009?
True

Evaluate CCTCGAGCATGGACCGGTTTTCCCGGTAATCCGTATTTGTG (site CCTCGAGCTCA) : recombinant UMI read abundance (log10) at minimum 0.009?
True

Evaluate GCTTGCCCATGGACCGGTTTTCCCGGTAATCCGTATTTGAT (site GCTTACCCTAT) : recombinant UMI read abundance (log10) at minimum 0.009?
True

Evaluate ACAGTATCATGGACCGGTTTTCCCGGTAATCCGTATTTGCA (site GCAGTATCTTG) : recombinant UMI read abundance (log10) at minimum 0.009?
True

Evaluate GCGACTGCATGGACCGGTTTTCCCGGTAATCCGTATTTGCC (site GCTACTGCTGG) : recombinant UMI read abundance (log10) at minimum 0.009?
False

Evaluate CGATAATCATGGACCGGTTTTCCCGGTAATCCGTATTTGCT (site CGATCATCTAG) : recombinant UMI read abundance (log10) at minimum 0.009?
False

Evaluate GTTCCAACATGGACCGGTTTTCCCGGTAATCCGTATTTGTA (site GTTCCAACTTA) : recombinant UMI read abundance (log10) at minimum 0.009?
True

Evaluate CCCTAGCCATGGACCGGTTTTCCCGGTAATCCGTATTTGCC (site CCCTACCCTGG) : recombinant UMI read abundance (log10) at minimum 0.009?
False
